# Target Or System: PI3K δ (Homo sapiens)
# Construct: purchased Upstate / Millipore Corporation
# Sequence (O00329 whole entry): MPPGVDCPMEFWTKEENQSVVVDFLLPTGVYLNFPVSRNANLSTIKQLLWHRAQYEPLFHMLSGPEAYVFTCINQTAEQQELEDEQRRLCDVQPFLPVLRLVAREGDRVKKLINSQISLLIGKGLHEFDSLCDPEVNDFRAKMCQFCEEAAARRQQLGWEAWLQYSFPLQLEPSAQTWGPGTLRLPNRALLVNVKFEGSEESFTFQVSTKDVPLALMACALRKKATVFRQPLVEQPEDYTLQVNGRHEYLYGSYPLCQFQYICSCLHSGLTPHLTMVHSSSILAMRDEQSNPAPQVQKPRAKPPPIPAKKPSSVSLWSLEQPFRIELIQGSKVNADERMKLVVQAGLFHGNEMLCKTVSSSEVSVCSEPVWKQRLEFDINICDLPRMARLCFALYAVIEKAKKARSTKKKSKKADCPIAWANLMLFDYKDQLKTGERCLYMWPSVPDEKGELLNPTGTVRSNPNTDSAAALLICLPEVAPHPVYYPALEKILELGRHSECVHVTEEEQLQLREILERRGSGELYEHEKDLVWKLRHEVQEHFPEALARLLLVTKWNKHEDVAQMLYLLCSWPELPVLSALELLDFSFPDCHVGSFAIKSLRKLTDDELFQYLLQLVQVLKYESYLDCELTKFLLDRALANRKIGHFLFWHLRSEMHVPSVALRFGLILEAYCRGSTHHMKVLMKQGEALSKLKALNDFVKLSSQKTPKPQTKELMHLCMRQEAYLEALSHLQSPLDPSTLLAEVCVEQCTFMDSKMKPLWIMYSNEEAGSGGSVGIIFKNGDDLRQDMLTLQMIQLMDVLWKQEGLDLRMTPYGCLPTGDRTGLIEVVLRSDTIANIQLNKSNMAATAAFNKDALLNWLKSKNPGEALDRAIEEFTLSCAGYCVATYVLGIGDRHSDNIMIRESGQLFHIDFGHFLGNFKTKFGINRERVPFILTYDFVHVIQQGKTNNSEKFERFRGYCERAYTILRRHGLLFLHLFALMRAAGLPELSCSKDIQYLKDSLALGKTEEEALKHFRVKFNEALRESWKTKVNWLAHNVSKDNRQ
# Sequence (P27986 whole entry partner): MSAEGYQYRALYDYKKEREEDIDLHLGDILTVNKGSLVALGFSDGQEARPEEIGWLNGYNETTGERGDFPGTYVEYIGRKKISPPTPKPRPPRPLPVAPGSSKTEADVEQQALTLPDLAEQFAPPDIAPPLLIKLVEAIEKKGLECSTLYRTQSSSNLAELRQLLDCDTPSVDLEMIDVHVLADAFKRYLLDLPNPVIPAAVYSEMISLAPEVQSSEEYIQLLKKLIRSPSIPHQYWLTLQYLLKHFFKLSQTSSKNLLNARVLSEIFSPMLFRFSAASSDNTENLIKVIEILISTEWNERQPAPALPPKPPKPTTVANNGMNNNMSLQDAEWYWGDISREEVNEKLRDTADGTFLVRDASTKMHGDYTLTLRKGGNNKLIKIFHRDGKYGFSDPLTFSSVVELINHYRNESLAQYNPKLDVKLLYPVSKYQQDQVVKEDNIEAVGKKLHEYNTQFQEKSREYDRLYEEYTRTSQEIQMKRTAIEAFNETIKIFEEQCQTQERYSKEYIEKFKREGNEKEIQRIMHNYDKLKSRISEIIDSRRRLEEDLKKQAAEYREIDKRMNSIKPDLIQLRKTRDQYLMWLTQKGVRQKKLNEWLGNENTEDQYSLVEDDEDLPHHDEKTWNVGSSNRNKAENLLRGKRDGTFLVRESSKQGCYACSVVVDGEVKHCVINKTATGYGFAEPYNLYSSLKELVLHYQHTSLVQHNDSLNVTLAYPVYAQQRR
# Assay Protocol: PI 3-Kinase (human) HTRF assay, PI3K δ
# Format: biochemical
# Condition Label: read-out: PI3K δ IC50
pIC50: −log10 of the molar value.
Experimental Endpoint: pIC50

## Task Entry `CN1CCN(C2CCN(c3cnc4ccc(-c5ccc6oc(N)nc6c5)cc4n3)CC2)CC1` has what pIC50?
## Result > 7.00

## Task Entry `CC(C)N1CCC(n2cnc3ccc(-c4ccc5oc(N)nc5c4)cc3c2=O)CC1` has what pIC50?
## Result < 5.00

## Task Entry `Cc1cc2oc(N)nc2cc1-c1ccc2ncc(C(=O)N3CCOCC3)n2c1` has what pIC50?
## Result < 5.00

## Task Entry `CC(=O)Nc1n[nH]c2ccc(-c3ccc4oc(N)nc4c3)cc12` has what pIC50?
## Result < 5.00

## Task Entry `Nc1nc2cc(-c3ccc4ncc(N5CC(N6CC[C@@H](O)C6)C5)nc4c3)ccc2o1` has what pIC50?
## Result > 5.00

## Task Entry `COC(=O)N1CCC(n2ncc3c(N4CCOCC4)nc(-c4ccc5oc(N)nc5c4)nc32)CC1` has what pIC50?
## Result < 5.00

## Task Entry `Nc1nc2cc(-c3ccc4ncn(C5CCC5)c(=O)c4c3)ccc2o1` has what pIC50?
## Result < 5.00

## Task Entry `Cn1c(=O)n(-c2ccc(C(C)(C)C#N)cc2)c2c3cc(-c4ccc5oc(N)nc5c4)ccc3ncc21` has what pIC50?
## Result > 7.00

## Task Entry `COc1ncc(-c2ccc3ncc(C(=O)N4CCOCC4)n3c2)c2cn[nH]c12` has what pIC50?
## Result > 5.00

## Task Entry `Nc1nc2ccc(-c3ccc4nccc(-c5ccncc5)c4c3)cc2s1` has what pIC50?
## Result > 6.00

## Task Entry `Nc1nc2cc(-c3ccc4ncc(-c5ccnc(N6CCOCC6)c5)n4c3)ccc2o1` has what pIC50?
## Result > 7.00

## Task Entry `CN1CCN(c2cnc3ccc(-c4ccc5oc(N)nc5c4)cc3n2)CC1` has what pIC50?
## Result > 5.00

## Task Entry `C[C@H]1COCCN1C(=O)c1cnc2ccc(-c3ccc4oc(N)nc4c3)cn12` has what pIC50?
## Result < 5.00

## Task Entry `Nc1nc2cc(-c3ccc4ncc(N5CCC(n6cccn6)CC5)nc4c3)ccc2o1` has what pIC50?
## Result < 5.00

## Task Entry `O=C(c1cnc2ccc(-c3cnc(Cl)c(NS(=O)(=O)c4ccc(F)cc4)c3)cn12)N1CCOCC1` has what pIC50?
## Result > 7.00

## Task Entry `CC(C)(C#N)c1ccc(Nc2ncnc3ccc(-c4ccc5oc(N)nc5c4)cc23)cc1` has what pIC50?
## Result > 6.00

## Task Entry `Nc1nc2cc(-c3ccc4ncc(-c5cn[nH]c5)n4c3)ccc2o1` has what pIC50?
## Result > 7.00

## Task Entry `Nc1nc2cc(-c3ccc4nccc(N5CCOCC5)c4c3)ccc2o1` has what pIC50?
## Result > 6.00

## Task Entry `CN1CCC(Nc2nc3cc(-c4ccc5ncc(C(=O)N6CCOCC6)n5c4)ccc3o2)CC1` has what pIC50?
## Result < 5.00

## Task Entry `Nc1nc2cc(-c3ccc4ncc(N5CC(N6CCN(CCO)CC6)C5)nc4c3)ccc2o1` has what pIC50?
## Result > 6.00

## Task Entry `CS(=O)(=O)N1CCC(Nc2cnc3ccc(-c4ccc5oc(N)nc5c4)cc3n2)CC1` has what pIC50?
## Result > 7.00

## Task Entry `CCN(CC)CCNc1cnc2ccc(-c3ccc4oc(N)nc4c3)cc2n1` has what pIC50?
## Result > 6.00

## Task Entry `CN1CCN(C2CN(c3cnc4ccc(-c5ccc6oc(N)nc6c5)cc4n3)C2)CC1=O` has what pIC50?
## Result > 5.00

## Task Entry `COc1ncc(-c2ccc3ncc(C(=O)N4CCOCC4)n3c2)cc1NS(=O)(=O)c1cccc(F)c1` has what pIC50?
## Result > 7.00

## Task Entry `Nc1nc2cc(-c3ccc4ncc(C(=O)N5CCOCC5)n4c3)c(Cl)cc2o1` has what pIC50?
## Result < 5.00

## Task Entry `Nc1nc2cc(-c3ccc4nnc(-c5ccncc5)n4c3)ccc2o1` has what pIC50?
## Result < 5.00

## Task Entry `Cn1cc(-c2cnc3ccc(-c4ccc5oc(N)nc5c4)cc3n2)cn1` has what pIC50?
## Result > 5.00

## Task Entry `CN1CCN(c2cc(-c3cnc4ccc(-c5ccc6oc(N)nc6c5)cn34)ccn2)CC1` has what pIC50?
## Result > 7.00

## Task Entry CN1CC2CN(C(=O)c3cnc4ccc(-c5ccc6oc(N)nc6c5)cn34)CC2C1 (stereo not shown) has what pIC50?
## Result > 6.00

## Task Entry `Nc1nc2cc(-c3ccc4nccn4c3)ccc2o1` has what pIC50?
## Result < 5.00

## Task Entry `CC(=O)Nc1nc(C)c(-c2ccc3oc(N)nc3c2)s1` has what pIC50?
## Result > 6.00

## Task Entry `C[C@H]1CN(c2cnc3ccc(-c4ccc5nc(N)sc5c4)cc3n2)CCN1` has what pIC50?
## Result < 5.00

## Task Entry `Cc1cc(-c2ccc3nc(N)oc3c2)cn2c(CN3CCN(C)CC3)nnc12` has what pIC50?
## Result < 5.00

## Task Entry `CC(=O)Nc1nc2cc(-c3ccc4oc(N)nc4c3)ccc2s1` has what pIC50?
## Result < 5.00
